Tested on: C. neoformans (4)
Experiment: In vitro antimycotic activity, strain panel (Table 2)
Assay type: cell-based
Settings: Cryptococcus neoformans; C. neoformans, 4 strains; read-out: MIC90
# key: entry, value: MIC90
Your answer is read as µg/mL, so omit the unit and give the number.

Take a look at these entries with their results.
# compound, result-unit, val
records = [
    ("OC(Cn1cncn1)(Cn1cncn1)c1ccc(F)cc1F [Fluconazole, reference compound]", "µg/mL", 32),
    ("C[C@H]([C@](O)(Cn1cncn1)c1ccc(F)cc1F)S(C)(=O)=O [Genaconazole, reference compound]", "µg/mL", 16),
    ("CC(C)(COC(F)(F)C(F)F)C(O)(Cn1cncn1)c1ccc(Cl)cc1 (racemic)", "µg/mL", 0.5),
]

Request: Tell me reported MIC90 for CCC(C)n1ncn(-c2ccc(N3CCN(c4ccc(OCC5COC(Cn6cncn6)(c6ccc(Cl)cc6Cl)O5)cc4)CC3)cc2)c1=O (centres unmarked) [Itraconazole, reference compound] , tested with C. neoformans (4).
Response: 0.1
